test system: UACC-257 melanoma; assay: NCI tumour cell line growth inhibition, 48 h
Each entry below lists one item and its recorded TGI value.

Example cases with answers are listed next.
CN(C(=O)c1ccncc1)c1ccccc1: > 100 µM
COc1cc2c3c(n(C)c(=O)c2cc1OC)-c1cc2c(cc1/C3=C\C(N)CN)OCO2 (configuration not stated): 41.4 µM
CC(=O)O[C@H]1CCn2c3c(c(C)c21)C(=O)C(N1CC1)=C(C)C3=O: > 10 µM
O=c1c2cn[nH]c2nc2scc(-c3ccc(Cl)cc3)n12: > 100 µM

Now examine the next entry.
// lookup TGI for COC1=CC(=O)c2c(O)c3c(c(O)c2C1=O)C=C(C)OC3O (configuration not stated)
0.754 µM

* * *

Each entry below lists one item and its recorded TGI value.
tested on: SNB-75 CNS; experiment: NCI tumour cell line growth inhibition, 48 h

Example cases with answers are listed next.
O=C1OCC/C1=C/c1ccc(N=Nc2c(O)ccc3ccccc23)cc1: 49.2 µM
O=C(COc1cccc(/C=C2\COc3ccc(Cl)cc3C2=O)c1)c1ccc(Cl)cc1: 22.2 µM
CN1CCN(c2cc(-c3cc4ccccc4o3)oc(=O)c2C#N)CC1: > 100 µM

Given the entry Cn1cc(-c2ccc(-c3cn(C)c4ccc(Cl)cc34)s2)c2cc(Cl)ccc21 , what TGI was observed with SNB-75 CNS?
> 100 µM

Given the entry CCOP(=O)(CN=C(c1ccccc1)c1ccccc1)OCC , what TGI was observed with SNB-75 CNS?
> 100 µM

Given the entry COc1cccc2nc3cc(C)c(C)cc3nc12 , what TGI was observed with SNB-75 CNS?
> 100 µM

Given the entry CC12c3c4cc(Br)cc3Oc3cc(Br)cc(c31)Oc1cc(Br)cc(c12)O4 , what TGI was observed with SNB-75 CNS?
31.3 µM

Given the entry NC(CCC(=O)O)(CCC(=O)O)CCC(=O)O , what TGI was observed with SNB-75 CNS?
> 100 µM

Given the entry C=CCNC(=O)NCCCC(NC(C)=O)C(=O)NCc1ccccc1 (stereo unspecified) , what TGI was observed with SNB-75 CNS?
> 100 µM

Given the entry C[n+]1cccc2ccc(OC(=O)c3ccccc3)cc21 , what TGI was observed with SNB-75 CNS?
> 100 µM

Given the entry CCOP(=O)(OCC)C1=C(c2ccccc2)OC(N)=C(C#N)C1c1ccc(Cl)cc1 (stereo unspecified) , what TGI was observed with SNB-75 CNS?
> 100 µM

* * *

tested on: NCI-H23 lung; assay: NCI tumour cell line growth inhibition, 48 h
ENDPOINT NAME: TGI

Example cases with answers are listed next.
COc1ccc2c(c1)C(C)Cc1c(Cl)nc(C)nc1N2C (stereo unspecified): 37.2 µM
CCC1CCc2c(OC)ccc(OCC(=O)O)c2C1=O (stereo unspecified): > 100 µM
CC1=N[C@](C)(C2CC3C=CC2C3=O)COC1=O (stereo partly specified): > 100 µM
CS/C(=N\c1nccs1)NC(=O)c1cccc(Cl)c1: > 100 µM

// lookup TGI for O=C(COc1cccc(/C=C2\COc3ccc(Cl)cc3C2=O)c1)c1ccc(Cl)cc1
26.4 µM

// lookup TGI for Cc1n[nH]c(=O)n1/N=C\CC/C=N\n1c(C)n[nH]c1=O
> 100 µM

* * *

Each entry below lists one item and its recorded TGI value.
system: CCRF-CEM leukemia; assay: NCI tumour cell line growth inhibition, 48 h

CC(=O)N(CN1C(=O)CCC1C(=O)O)c1cccc(O)c1 (centres undefined): > 100 µM
CC(C)N1C(NNC(=O)c2cnccn2)=NS(=O)(=O)c2ccccc21: 6.3 µM
CC(=O)Nc1ccc(/C=C/C(=O)c2sc(-c3nc(C)c(C(=O)/C=C/c4ccc(NC(C)=O)cc4)s3)nc2C)cc1: > 100 µM
CCc1nnc(-c2nsc3ccccc23)s1: > 100 µM
COC(C)(C)CCc1[nH]c2ccccc2c1CC(=O)NCCc1cncn1C: > 100 µM
CCC(=O)N(O)C(C)(C)C: > 100 µM
CCCCNC(=O)NS(=O)(=O)c1ccc(N2N=C(c3cc(C)ccc3C)CC2c2cc(OC)c(OC)c(OC)c2)cc1 (centres undefined): 6.12 µM
CCSc1nc(=[N+]2CCCC2)ss1: 13.2 µM
OCC1OC(n2cnc3c(=S)nc[nH]c32)C(O)C1O (centres undefined): > 2500 µM
CCCOC(=O)CCn1c(SC)nc2[nH]cc(-c3ccccc3)c2c1=O: 35.1 µM

// lookup TGI for CCCC(Sc1ccccc1)P(=O)(c1ccccc1)c1ccccc1 (centres undefined)
> 100 µM

// lookup TGI for COc1cccc2c1C(=O)c1ccc3cc(CCl)cc(O)c3c1C2=O
1.98 µM

// lookup TGI for C=C1CCC2[C@@H](CCC3[C@]2(C)CCC[C@]3(C)C(=O)OC)C1CCO (some centres undefined)
33.1 µM

* * *

system: 786-0 renal; experiment: NCI tumour cell line growth inhibition, 48 h
ENDPOINT NAME: TGI

Example cases with answers are listed next.
O=S(=O)(O)c1ccc2c(N=Nc3ccc(F)cc3)c(O)c(S(=O)(=O)O)cc2c1: > 100 µM
O=C(CCCSc1nc(-c2ccccc2)cc(-c2ccc(Cl)cc2)n1)NO: 13.3 µM
O=c1cc(N=Nc2ccc(O)cc2)[nH]c(=O)[nH]1: > 100 µM
CC1(C)OC(=O)C2(O1)C(=O)C1CCCCC12 (stereo not drawn): > 100 µM
O=C(N/N=C/c1cc([N+](=O)[O-])ccc1O)c1cccc2ccccc12: 27.7 µM

// lookup TGI for c1ccc(CSc2nnc3c4ccccc4c4ccccc4c3n2)cc1
> 92.5 µM

// lookup TGI for C/C(=N\NC(=S)Nc1ccc(C)cc1)c1nc2ncccc2[nH]1
18.7 µM

// lookup TGI for O=c1[nH]c(-c2ccccc2)nc2c1sc1nc3ccccc3n12
> 100 µM

* * *

Each entry below lists one item and its recorded GI50 value.
test system: TK-10 renal; test: NCI tumour cell line growth inhibition, 48 h

CC(C)C[C@H](NC(=O)[C@@H](O)[C@H](N)Cc1ccc([N+](=O)[O-])cc1)C(=O)O: > 25 µM
Nc1n[nH]c2cccc(C#Cc3cccc(C(=O)Nc4cc(CN5CCOCC5)cc(C(F)(F)F)c4)c3)c12: 11.4 µM
N=C(N)c1ccc(COc2ccccc2OCc2ccc(C(=N)N)cc2)cc1: 34.3 µM
C/C=C/C=C/CCCCCCCCCCCCCC1(OC)C=CC(CC(=O)OC)OO1 (stereo not given): 2.26 µM
FC(F)(F)c1ccc(-c2cnc(Cl)nc2NCc2cc(C(F)(F)F)cc(C(F)(F)F)c2)cc1: 3.16 µM

Given the entry COc1ccc2c(c1)C(C)Cc1c(Cl)nc(C)nc1N2C (stereo not given) , what GI50 was observed with TK-10 renal?
4.55 µM

Given the entry COc1cc(C2C3=C(COC3=O)Nc3cc4c(cc32)CCC4)cc2c1OCO2 (stereo not given) , what GI50 was observed with TK-10 renal?
10.1 µM

Given the entry CCCCN(CCCC)c1ccc(C(=NC(C)CCCN(CC)CC)c2ccc(N(C)C)cc2)cc1 (stereo not given) , what GI50 was observed with TK-10 renal?
1.34 µM

Given the entry O=C(CCCSc1nc(-c2ccccc2)cc(-c2ccc(Cl)cc2)n1)NO , what GI50 was observed with TK-10 renal?
0.773 µM

Given the entry Cc1[nH]c2ccccc2c1CCNCc1ccc(/C=C/C(=O)NO)cc1 , what GI50 was observed with TK-10 renal?
< 0.0111 µM

* * *

system: HL-60(TB) leukemia; test: NCI tumour cell line growth inhibition, 48 h
ENDPOINT NAME: TGI

Example cases with answers are listed next.
CCOC(=O)c1nc(-c2ccccc2)oc1OCC: > 100 µM
O=C(/C=C/c1ccc(Cl)cc1)c1cccs1: 29.8 µM
O=C1CCC2(c3ccccc3)Nc3ncccc3N12 (stereo not drawn): > 100 µM

// lookup TGI for O=C(Cc1ccccc1)NNc1nc(NNC(=O)c2ccncc2)nc(Nc2cccc(Cl)c2)n1
> 10 µM

// lookup TGI for NNCCc1n[nH]c(=O)n1N
> 100 µM

// lookup TGI for CCCCNC(=O)NS(=O)(=O)c1ccc(N2N=C(c3cc(C)ccc3C)CC2c2cc(OC)c(OC)c(OC)c2)cc1 (stereo not drawn)
7.62 µM

// lookup TGI for COc1cc(C2CC(c3ccc(N(C)C)cc3)=NN2C(C)=O)cc(OC)c1OC (stereo not drawn)
> 25.1 µM

// lookup TGI for COc1cc(C(=O)/C=C/c2cccnc2Nc2ccccc2)cc(OC)c1OC
4.98 µM

// lookup TGI for CCC1CCc2c(OC)ccc(OCC(=O)O)c2C1=O (stereo not drawn)
> 100 µM

* * *

Each entry below lists one item and its recorded TGI value.
tested on: NCI/ADR-RES ovarian; experiment: NCI tumour cell line growth inhibition, 48 h
Give just the numeric value; µM need not be written.

CCOC(=O)C1(C/C=C\CBr)CCCCCCCCCCC1=O (stereo not given): 39.2
CC(=O)N1N(c2ccc([N+](=O)[O-])cc2)C(=O)C1(C)C: 89.9

// lookup TGI for CCCCN(CCCC)c1ccc(C(=NC(C)CCCN(CC)CC)c2ccc(N(C)C)cc2)cc1 (stereo not given)
1.94

// lookup TGI for Clc1nc(Cl)c(-c2ccccc2)c(Cl)n1
11

Attribution: PubChem BioAssay (NCI)
